Biological target: Progesterone receptor (Homo sapiens) (UniProt P06401)
Sequence (P06401 whole entry, looked up): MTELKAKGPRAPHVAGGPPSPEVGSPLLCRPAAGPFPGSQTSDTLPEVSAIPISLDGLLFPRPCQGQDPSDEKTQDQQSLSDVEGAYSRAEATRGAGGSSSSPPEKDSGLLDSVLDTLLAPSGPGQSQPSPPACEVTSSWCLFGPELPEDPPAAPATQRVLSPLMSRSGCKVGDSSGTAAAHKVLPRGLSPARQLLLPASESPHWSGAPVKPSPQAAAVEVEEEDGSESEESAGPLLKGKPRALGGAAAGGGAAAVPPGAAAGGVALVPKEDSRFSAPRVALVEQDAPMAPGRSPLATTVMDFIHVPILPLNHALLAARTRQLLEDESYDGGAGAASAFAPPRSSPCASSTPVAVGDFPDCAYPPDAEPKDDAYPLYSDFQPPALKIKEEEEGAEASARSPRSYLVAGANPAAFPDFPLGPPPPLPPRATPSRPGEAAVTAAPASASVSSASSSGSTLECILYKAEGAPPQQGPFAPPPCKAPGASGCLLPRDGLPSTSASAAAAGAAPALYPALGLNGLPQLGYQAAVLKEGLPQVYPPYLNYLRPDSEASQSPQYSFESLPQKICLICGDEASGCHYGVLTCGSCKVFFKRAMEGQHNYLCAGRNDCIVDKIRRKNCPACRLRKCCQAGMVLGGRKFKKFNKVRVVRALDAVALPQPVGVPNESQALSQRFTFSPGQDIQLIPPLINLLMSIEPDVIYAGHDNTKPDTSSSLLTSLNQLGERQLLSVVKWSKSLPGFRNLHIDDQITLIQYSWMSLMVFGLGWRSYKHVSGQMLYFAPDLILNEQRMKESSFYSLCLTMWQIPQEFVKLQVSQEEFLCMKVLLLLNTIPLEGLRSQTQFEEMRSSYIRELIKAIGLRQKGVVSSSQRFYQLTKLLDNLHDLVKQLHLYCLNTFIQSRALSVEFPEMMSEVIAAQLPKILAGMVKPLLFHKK
Experiment: qHTS assay to identify small molecule antagonists of the progesterone receptor (PR) signaling pathway (AID 1346795); further: potency means the concentration at half of the fitted maximal effect
Details: PR-UAS-bla HEK293T, beta-lactamase FRET ratio, 16 h; series mostly up to 92.4 µM
Records with an inconclusive call do not appear. Active and inactive are the calls of the source. The call rests on the fitted dose curve; in most records, active means well fitted inhibition curve with a large enough effect in the signal ratio in the repeat runs (not every such curve was filed as active); inconclusive means weak or mixed curves; inactive means flat fitted curve, though single readings scatter; the % refers to the signal ratio.
Test Readout: Potency

Some molecules with recorded Potency:
COc1cc(OC)nc(NC(=O)NS(=O)(=O)Nc2ccccc2C(=O)N(C)C)n1 :: inactive
NC(=O)C1CO1 (stereo not given) :: inactive
CCCCCCCCCC[N+](C)(CCCCCCCCCC)CCC[Si](OC)(OC)OC :: inactive
COc1cc([C@@H]2c3cc4c(cc3[C@@H](O[C@@H]3O[C@@H]5CO[C@@H](C)O[C@H]5[C@H](O)[C@H]3O)[C@H]3COC(=O)[C@H]23)OCO4)cc(OC)c1O :: 24.1 µM (active)

# next molecule below
I am curious: what Potency value has been reported for CC(C)=CCC[C@H](C)CC=O ?
inactive

====

Test: qHTS assay to identify small molecule antagonists of the androgen receptor (AR) signaling pathway using the MDA cell line - cell viability counter screen (AID 743041; further: nearly all actives have a fitted effect of over 45% in size)
Conditions: MDA-kb2 viability, CellTiter-Fluor, 16 h, cells co-treated with R1881 androgen agonist; series mostly up to 70.3 µM
Records with an inconclusive call do not appear. The source made the active and inactive calls. Calls come from the whole dose curve; as a rule, active = well fitted cell-killing curve with a large enough effect in the repeat runs; inconclusive = weak or mixed curves, or effect the other way; inactive = flat fitted curve, though single readings scatter.
Thanks in advance; please answer with one of these: active, inactive

As a guide, the following entries are already answered.
O=C(O)/C=C/C(O)c1ccc(Cl)cc1 (stereo not given) :: inactive
CSCCC(N)C(=O)O (stereo not given) :: inactive

Assay outcome for C=C1C(=C/C=C2\CCC[C@]3(C)[C@@H]([C@H](C)CCCC(C)C)CC[C@@H]23)C[C@@H](O)C[C@@H]1O : what was it?
inactive

Status in this test for O=C(O)[C@H]1CN(C/C=C/P(=O)(O)O)CCN1 ?
inactive

Fill in: this test's call for Cc1cc(N)c2ccccc2[n+]1CCCCCCCCCC[n+]1c(C)cc(N)c2ccccc21 is ___
active

====

Assay: qHTS assay for small molecule agonists of the p53 signaling pathway - cell viability (AID 651633); further: nearly all actives have a fitted effect of over 30% in size; further: potency means the concentration at half of the fitted maximal effect
Settings: p53RE-bla HCT-116 viability, ATP luminescence, 16 h; series mostly up to 83.3 µM
Description: National Center for Advancing Translational Sciences [NCATS] NIH Chemical Genomics Center [NCGC] U.S. Environmental Protection Agency [EPA] National Institutes of Environmental Health Sciences [NIEHS] National Toxicology Program [NTP] U.S. Food and Drug Administration [FDA] p53, a tumor suppressor protein, is activated following cellular insult, including DNA damage and other cellular stresses. […] The activation of the reporter gene under culture conditions can be detected by fluorescence intensity. […]
Results filed as inconclusive are left out. Active and inactive are the calls of the source. Calls follow the shape of the full dose curve.
Test Readout: Potency

Answered cases to consult:
C[C@]12O[C@H](C[C@]1(O)CO)n1c3ccccc3c3c4c(c5c6ccccc6n2c5c31)CNC4=O :: 0.944 µM (active)
CC(=O)Nc1ccc(OC(C)=O)cc1 :: inactive
CCOc1ccc(S(=O)(=O)O)c2cccnc12 :: inactive
CN(C[C@@H](CC[N+]12CCC(C3CCCCC3)(CC1)CC2)c1ccc(Cl)c(Cl)c1)C(=O)c1cc(C(F)(F)F)cc(C(F)(F)F)c1 :: 27.3 µM (active)
CCCCCN=C(N)N/N=C/c1c[nH]c2ccc(OC)cc12 :: inactive

Value lookup for Potency; key = N=C(N)n1cccn1
inactive

Quick one: Potency for C=CC1=C(C(=O)O)N2C(=O)[C@@H](NC(=O)/C(=N/OCC(=O)O)c3csc(N)n3)[C@H]2SC1 (stereo in doubt) ?
inactive

Field request: Potency | item: CC12CCC(C[N+](C)(CCC[N+](C)(C)C)C1)C2(C)C (configuration not stated)
inactive

Would you kindly share the measured Potency for CCCCCCCCOC(=O)c1cc(O)c(O)c(O)c1 ?
54.5 µM (active)

Dear colleague, I am looking for the recorded Potency of the following molecule: COc1c(Br)cc(Br)c(C)c1Br
inactive

====

Molecular target: Cytochrome P450 2C9 (Homo sapiens)
Test: Cytochrome P450 Family 2 Subfamily C Member 9 (CYP2C9) small molecule antagonists: luciferase reporter qHTS assay (AID 1671198); further: nearly all actives have a fitted effect of over 50% in size
Settings: P450-Glo CYP2C9 enzyme assay, luciferin luminescence; series mostly up to 115 µM
Inconclusive results are not listed. The source made the active and inactive calls. Calls come from the whole dose curve; as a rule, active = well fitted inhibition curve with a large enough effect in the repeat runs; inconclusive = weak or mixed curves; inactive = no such curve, though single readings can be large or run the other way.
Please reply with one of these outcomes: active, inactive

Would you please look over these solved cases?
COCCC(=O)OC :: inactive
CCCCCCCCCCCCCCCCCCNC(=O)OC1CCN(C(=O)OC[C@H](COC(=O)N(Cc2cccc[n+]2CC)C(=O)c2ccccc2OC)OC)CC1 :: active
CCOC(=O)[C@H](O)[C@@H](O)C(=O)OCC :: inactive
CCc1cccc(CC)c1 :: inactive
COc1cc(OC)nc(NC(=O)NS(=O)(=O)Nc2ccccc2C(=O)N(C)C)n1 :: active

Check the results log: what was the call for CCN(CC)c1ccc2c(c1)Oc1cc(N(CC)CC)ccc1C21OC(=O)c2ccccc21 ?
active

Lab log entry: ClC(c1ccccc1)(c1ccccc1)c1ccccc1 — outcome as called in the assay?
active

Test call for this compound, please: C=C1C(CCl)(CCl)C2(Cl)C(Cl)C(Cl)C1(Cl)C2(Cl)Cl (stereo unspecified)
active

For this compound, state the assay outcome: C=COCCCC
inactive

Which outcome did this test record for the compound Cc1ccc2n[nH]nc2c1 ?
inactive

Could you please tell me the result logged for CCCCCCCCCC[N+](C)(CCCCCCCCCC)CCC[Si](OC)(OC)OC in this assay?
active

Call for entry c1ccc2cc3c4ccccc4c4ccccc4c3cc2c1 :
inactive

Hi team, can someone confirm the assay call for O=C1OCc2ccccc21 ?
inactive

Please indicate how the test categorized COC(=O)c1ccc([N+](=O)[O-])cc1 .
inactive

Lab log entry: CC/C=C\C/C=C\C/C=C\CCCCCCCC(=O)OC — outcome as called in the assay?
active

# fetch the recorded call for COc1cccc(-c2ccc(/C=C\CN3CCCCCC3)cc2Cl)c1 here
active

Entry CCNc1nc(NC(C)(C)C)nc(OC)n1 : call = ?
inactive

====

Molecular target: Nuclear receptor subfamily 1 group I member 2 (Homo sapiens)
Assay: Human pregnane X receptor (PXR) activation by small molecules, qHTS assay (AID 1346985); further: on the % scale 0 is the no-effect control and ±100 the full control effect; nearly all actives have a fitted effect of over 40% in size
Settings: DPX-2 HepG2 CYP3A4-luciferase, 24 h; series mostly up to 38.3 µM
Source text: National Center for Advancing Translational Sciences [NCATS] NIH Chemical Genomics Center [NCGC] U.S. Environmental Protection Agency [EPA] National Institutes of Environmental Health Sciences [NIEHS] National Toxicology Program [NTP] The Pregnane X receptor (PXR), a ligand activated nuclear receptor plays a critical role in the regulation of genes involved in drug metabolism and transporters. Activation of PXR may be involved in the unwanted adverse drug-drug interactions. […]
Results filed as inconclusive are left out. Calls of active or inactive are those of the source. Calls follow the shape of the dose curve; as a rule, active = well fitted activation curve with a large enough effect in the repeat runs; inconclusive = weak or mixed curves; inactive = flat fitted curve, though single readings scatter. Positions of bridges follow the written chain, without caps; N, C: chain ends. Non-standard residues stand in square brackets, D forms with d. Residues, ends and D or L forms follow the SMILES beside them. *: point of attachment. Dab(CH2SO3H) = N[C@@H](CCNCS(=O)(=O)O)C(=O)O; X3 = CC[C@@H](C)CCCCC(=O)*; Dab = NCC[C@H](N)C(=O)O
Test Readout: outcome

Cc1c(N)nc([C@H](CC(N)=O)NC[C@H](N)C(N)=O)nc1C(=O)N[C@H](C(=O)N[C@H](C)[C@@H](O)[C@H](C)C(=O)N[C@H](C(=O)NCCc1nc(-c2nc(C(=O)NCCCCN=C(N)N)cs2)cs1)[C@@H](C)O)[C@@H](O[C@@H]1O[C@@H](CO)[C@@H](O)[C@H](O)[C@@H]1O[C@H]1O[C@H](CO)[C@@H](O)[C@H](OC(N)=O)[C@@H]1O)c1cnc[nH]1 :: inactive
OCCCNc1ccccc1 :: inactive
CC[C@@H](C)CCCCC(=O)N[C@@H](CCNCS(=O)(=O)O)C(=O)N[C@H](C(=O)N[C@@H](CCNCS(=O)(=O)O)C(=O)N[C@H]1CCNC(=O)[C@H]([C@@H](C)O)NC(=O)[C@H](CCNCS(=O)(=O)O)NC(=O)[C@H](CCNCS(=O)(=O)O)NC(=O)[C@H](CC(C)C)NC(=O)[C@@H](CC(C)C)NC(=O)[C@H](CCNCS(=O)(=O)O)NC1=O)[C@@H](C)O (X3-[Dab(CH2SO3H)]T[Dab(CH2SO3H)][Dab][Dab(CH2SO3H)][dL]L[Dab(CH2SO3H)][Dab(CH2SO3H)]T; lactam 4-C) :: inactive

====

Assay: qHTS assay for identifying genotoxic compounds that show differential cytotoxicity against isogenic chicken DT40 cell lines with known DNA damage response pathways - Rev3 mutant cell line (AID 743014); further: nearly all actives have a fitted effect of over 55% in size
Conditions: chicken DT40 Rev3-/- viability, CellTiter-Glo, 40 h; series mostly up to 68.4 µM
Records with an inconclusive call do not appear. Calls of active or inactive are those of the source. Calls follow the shape of the dose curve; as a rule, active = well fitted cell-killing curve with a large enough effect in the repeat runs; inconclusive = weak or mixed curves, or effect the other way; inactive = no such curve, though single readings can be large or run the other way.
Assign a class; possible classes are yes (1) (active), no (0) (inactive)

Oc1ccc(Cl)cc1C1CCCC1 :: yes (1)
CCN1CCCC1CNC(=O)c1cc(S(=O)(=O)CC)ccc1OC (stereo not given) :: no (0)
NCC[C@H](O)C(=O)N[C@@H]1C[C@H](N)[C@@H](O[C@H]2O[C@H](CN)CC[C@H]2N)[C@H](O)[C@H]1O[C@H]1O[C@H](CO)[C@@H](O)[C@H](N)[C@H]1O :: no (0)
NC(N)=NCCCCN=C(N)N :: no (0)
CC(=O)OCC(=O)[C@@]1(O)CC[C@H]2[C@@H]3C[C@H](C)C4=CC(=O)C=C[C@]4(C)[C@H]3[C@@H](O)C[C@@]21C :: no (0)
CS(=O)(=O)c1ccc([C@@H](O)[C@@H](COC(=O)CN)NC(=O)C(Cl)Cl)cc1 :: yes (1)
CC(=O)OCC(=O)[C@@]1(O)CC[C@H]2[C@@H]3CCC4=CC(=O)CC[C@]4(C)C3=CC[C@@]21C :: no (0)
NCC(O)CC(=O)O (stereo not given) :: no (0)

For this molecule, state the assay outcome: CCCCCCCCCCCCCCCC(=O)OC[C@H](COP(=O)([O-])OCC[N+](C)(C)C)OC(=O)CCCCCCCCCCCCCCC
no (0)

So what was the verdict on NCC1CCC(C(=O)O)CC1 (stereo not given) in this test?
no (0)
